- Test system: PPARg:RXRa 30nM:10nM, anti-RXR (NR concentration 30 nM, RXRa partner concentration 10 nM)
- EXPERIMENTAL DETAILS: PBM binding z-score (relative to random genomic background probes); higher = stronger binding; sequences stand for … in GC…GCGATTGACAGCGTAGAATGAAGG
What PBM binding z-score was measured for each of the following?
Just the number, please, no unit attached.

Enquiry: Query PBM binding z-score for TATATTAGTTGAAGGGCAACCGACGAGTCCGTTT
Return: 0.993

Enquiry: Indicate the recorded PBM binding z-score value for this sequence: CCTTGCAGGCCAATCTGGGTCACTCAAGGCTTGA
Return: -0.0639

Enquiry: Please give measured PBM binding z-score of the following entry: TATACAGGGTCAAGGGCCAGAGTACGAATGTCGA
Return: 3.84

Enquiry: # return recorded PBM binding z-score for input CTACCAAGGTGAACAAGGTCGTTTATTACTATTC
Return: 0.0871

Enquiry: Report measured PBM binding z-score; entry is CCTACTGGGCCATCAGCTCATTGATATCAACGTT
Return: -0.273

Enquiry: For the sequence TAGCCTAGGTCATGGGACAGTATACCACGCGAAC , give its measured PBM binding z-score value.
Return: 1.14

Enquiry: Fill in PBM binding z-score for record TCTAGTTGGTCACGGAGGTCACACTCGACGGGTA
Return: 3.54

Enquiry: Return value of PBM binding z-score for input CCTCGTAGGACAACAGGAGGTCAGAGCTGCCAGA , no commentary.
Return: -0.534

Enquiry: Quick one: give measured PBM binding z-score for TCTTGAAGATCAAGCAGGTTAAGAAAGCCTGAGT
Return: 2.96

Enquiry: Identify PBM binding z-score associated with the sequence TCATATAGGTATTACAGGTGAAAGTCGGCATCTA
Return: 4.15

Enquiry: Assign PBM binding z-score to the following record: GCTGCTAGGTCAACTGATGGTCAGCTTAAGCTCG
Return: 0.312

Enquiry: Supply PBM binding z-score value. Item: CAGCCTATGTCAGGGCCAGTATAGGAGGAACGTT
Return: -0.514

Enquiry: Name the recorded PBM binding z-score of the sequence listed here: CCTTACGGGTCACTCCACGTTATAGCATCGGAGT
Return: 1.1

Enquiry: Find the measured PBM binding z-score of GCTTACGGGTCGAAGGTTATAGCATGAATAGAAT and report it.
Return: 4.94

Enquiry: Supply measured PBM binding z-score of CAGCCTAGGTCAGGGTCAGTATAGGAGGAACGTT in your reply.
Return: 0.577

Enquiry: Identify measured PBM binding z-score associated with CAAACTAGGTCACAGAGGTCAAAATCCGTGCGTA
Return: 6.44

Enquiry: Fill in PBM binding z-score for record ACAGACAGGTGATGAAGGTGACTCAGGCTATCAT
Return: -0.1

Enquiry: Tell me measured PBM binding z-score for ACTAGCAGGCCAAGTTTGGGTCACGCAAACAAAG please.
Return: -0.0172

Enquiry: Indicate the recorded PBM binding z-score value for this sequence: ACAGACAGGTGAGTGAAGGTAACTCATCTGGACG
Return: 0.12

Enquiry: Assign PBM binding z-score to the following record: TTACCAAGGTGAGCTGCGGTCGTTGATCCAACTC
Return: -0.536

Enquiry: Fill in reported PBM binding z-score for this entry: CAAGACAGGTGAAAGGTAACTCAGTCTGGTACGC
Return: 4.14

Enquiry: # return recorded PBM binding z-score for entry TCTTGTAGATCAAAGGTTAAGGAAGCCGAAGCCT
Return: 7.63

Enquiry: Report PBM binding z-score for TCTATTATTTGATTAGGGCAACCGAAACAGCGGA
Return: 4.02

Enquiry: Write down PBM binding z-score measured for item CGTCCAAGGTCTTAGGAGGTCAGTGAAGACAGAT
Return: 0.0477

Enquiry: Let me know recorded PBM binding z-score for GCGACTGGGGCATCAGCAGGTTACCACAACTTAA , thanks.
Return: -0.162

Enquiry: Hello, please tell me recorded PBM binding z-score for this one: CGAACGAGAGCATGAGTTGATAGCAAATGCCGAT
Return: -0.214

Enquiry: Quickly give me recorded PBM binding z-score for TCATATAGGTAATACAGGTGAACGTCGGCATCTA
Return: 4.08

Enquiry: Give recorded PBM binding z-score. AGAACGTGGGCACGCTGAGTTGATAGCAGAGTAG
Return: -0.225

Enquiry: Provide PBM binding z-score value for the following sequence: CCTTACGGGTCACTGACAGTTTATAGCATTTGGA
Return: 1.57

Enquiry: Tell me measured PBM binding z-score for TCGAGTAGGTTACCAATGGGGCATTCAACTTTCT please.
Return: 1.26

Enquiry: Provide measured PBM binding z-score value, entry: TCGAGTAGTTTAGTCGGGGCATTCAGCCAACATA
Return: 0.837

Enquiry: Note PBM binding z-score for the sequence shown: AGAGTGAGGTTATTAAGATCAGGGAATTGCGGTC
Return: 0.245

Enquiry: Give a short answer stating reported PBM binding z-score for CCGGCTAGGTCAATGGTCAGCTAAAGCAGCTCGC .
Return: 1.63

These measurements were taken from the supplement of paper PMC6555819.
